Test system: Huh-7
procedure.summary: Cytotoxicity in human HuH7 cells assessed as reduction in cell viability incubated for 72 hrs by cell-titer Glo asay
Type: functional, cell-based
applied.conditions: Huh-7, 72 h
readout.label: pIC50
For clarity, pIC50 is expressed as the negative log10 of concentration in mol/L.

CC1=C(O)C(=O)C=C2C1=CC=C1[C@@]2(C)CC[C@@]2(C)[C@@H]3C[C@](C)(C(=O)NCCc4ccccc4)CC[C@]3(C)CC[C@]12C :: 5.98

(Q) Note pIC50 for the molecule shown: `CC1=C(O)C(=O)C=C2C1=CC=C1[C@@]2(C)CC[C@@]2(C)[C@@H]3C[C@](C)(C(=O)OCc4ccccc4)CC[C@]3(C)CC[C@]12C`
(A) 5.67
